Source: the supplement of paper PMC8285479

Measured normalised cell viability by item
Test system: NCI-H1944
measurement-description: normalised cell viability (NPI; 0 = phenylarsine oxide control, 1 = DMSO control) (fraction of DMSO control); higher = more viable cells (less compound toxicity)
condition-context: glucocorticoid arm: vehicle; compound 1 µM; 6 days
Where a name gives a salt, the structure may show the parent alone. In all, about 1,900 compounds were measured (“normalised cell viability (NPI; 0 = phenylarsine oxide control, 1 = DMSO control)”: median about 1, lowest 2% from about 0.039 on). Shown is part of a subset that was picked to be rich in the lowest values.

{"columns": ["molecule", "normalised cell viability"],
 "data": [
  ["OCCn1cc(-c2cnc3nnn(Cc4ccc5ncccc5c4)c3n2)cn1", 1.01],
  ["NS(=O)(=O)c1cc(C(=O)O)c(NCc2ccco2)cc1Cl [Furosemide]", 0.984],
  ["OC(CCN1CCCCC1)(c1ccccc1)C1CCCCC1 (racemic) [DL-Trihexyphenidyl hydrochloride]", 0.995],
  ["COc1cc2c(cc1OC)[C@@H](c1ccccc1)CN(C)CC2", 0.988],
  ["FC(F)c1nc2ccccc2n1-c1nc(N2CCOCC2)nc(N2CCOCC2)n1", 0.691],
  ["Cc1cc(N2CCOCC2)cc2[nH]c(-c3c(NCC(O)c4cccc(Cl)c4)cc[nH]c3=O)nc12 (configuration not stated)", 0.753],
  ["Nc1nc2c(nc(Br)n2C2OC3COP(=O)(O)O[C@@H]3C2O)c(=O)[nH]1 (some centres not stated) [8-Bromo-cGMP sodium]", 1.01],
  ["NC(C(=O)O)C(O)C(=O)O (racemic) [DL-threo-beta-hydroxyaspartic acid]", 1],
  ["Cc1nc(N=Nc2cc(S(=O)(=O)O)c3cc([N+](=O)[O-])cc(S(=O)(=O)O)c3c2)c(COP(=O)(O)O)c(C=O)c1O [PPNDS tetrasodium]", 0.997],
  ["CC(C)(C)c1ccc(C(O)CCCN2CCC(C(O)(c3ccccc3)c3ccccc3)CC2)cc1 (configuration not stated) [Terfenadine]", 0.993],
  ["CC(C)(C(=O)O)c1ccc(C(O)CCCN2CCC(C(O)(c3ccccc3)c3ccccc3)CC2)cc1 (configuration not stated) [Fexofenadine hydrochloride]", 1],
  ["CCCCCCCCCC(=O)NC(CN1CCOCC1)[C@H](O)c1ccccc1 (mixture of isomers)", 1.01],
  ["CC(C)(C(=O)O)c1ccc(C(O)CCCN2CCC(C(O)(c3ccccc3)c3ccccc3)CC2)cc1 (configuration not stated) [Fexofenadine HCl]", 0.999],
  ["CN(C)CCOc1ccc(-c2nc(-c3ccncc3)c(-c3ccc4c(c3)CC/C4=N\\O)[nH]2)cc1", 1.01],
  ["CC(C)(C)c1cnc(CSc2cnc(NC(=O)C3CCNCC3)s2)o1", 0.00695],
  ["CS(=O)(=O)N1CCc2c(-c3cnc(N)nc3)nc(N3CCOCC3)nc21", 0.491],
  ["C[C@H](O)[C@H](O)[C@H]1CNc2nc(N)[nH]c(=O)c2N1 [(6R)-5,6,7,8-Tetrahydro-L-biopterin dihydrochloride]", 1.02]
]}

* * *

Measured normalised cell viability by item
Test system: NCI-H1944;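 also: CTB read-out in 384-well plates, triplicate wells, NPI normalised per plate against 1 µM phenylarsine oxide (0) and 0.1% DMSO (1) controls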
measurement-description: normalised cell viability (NPI; 0 = phenylarsine oxide control, 1 = DMSO control) (fraction of DMSO control); NCI-H1944 is a non-small cell lung cancer line; higher = more viable cells (less compound toxicity)
condition-context: glucocorticoid arm: hydrocortisone 2.75 uM pre-treated 2 days and continued; compound 5 µM; 6 days
Where a name gives a salt, the structure may show the parent alone. The full ranking holds about 1,900 compounds; the median of “normalised cell viability (NPI; 0 = phenylarsine oxide control, 1 = DMSO control)” is about 1, and the lowest 2% start at about 0.039. What follows is part of a selection rich in the lowest values, with near analogues and random picks from the rest.

{"columns": ["molecule", "system-tested", "normalised cell viability"],
 "data": [
  ["N#C/C(=C/c1ccc(O)c(O)c1)C(=O)NCc1ccccc1", "NCI-H1944", 1],
  ["C=CCN1CCc2c(cc(O)c(O)c2Cl)C(c2ccccc2)C1 (racemic) [(±)-Chloro-APB hydrobromide]", "NCI-H1944", 1],
  ["COc1cc(=O)n(C)c2c(OCC(O)C(C)(C)O)cccc12 (stereo not drawn)", "NCI-H1944", 0.981],
  ["C[C@H]1c2cccc(O)c2C(O)=C2C(=O)[C@]3(O)C(O)=C(C(N)=O)C(=O)[C@@H](N(C)C)[C@@H]3[C@@H](O)[C@@H]21 [Doxycycline HCl]", "NCI-H1944", 0.99],
  ["Cc1ccc(S(=O)(=O)N[C@@H](Cc2ccccc2)C(=O)CCl)cc1", "NCI-H1944", 1.02],
  ["O=C(O)c1ccnc(C(=O)O)c1", "NCI-H1944", 1.01],
  ["Nc1ncnc2c1ncn2[C@@H]1O[C@H](CO)[C@@H](O)[C@H]1O", "NCI-H1944", 0.987],
  ["CC1(C2CCCC2)Cc2cc(OCC(=O)O)c(Cl)c(Cl)c2C1=O (stereo not drawn)", "NCI-H1944", 0.986]
]}
